Tested on: T-47D breast
Labels: 1 for active, 0 for inactive

Compound: COc1ccc(-c2cn3ccnc3c(-c3ccc4ncn(C5CCCCC5)c4c3)n2)cc1
Assigned class: 0

Compound: O=[N+]([O-])/C=C\c1ccc2c(c1)OCO2
Assigned class: 0

Compound: ClCCn1cnc2c(SCc3ccccc3)ncnc21
Assigned class: 0

Compound: CC/C=C\C[C@H](O)C/C=C1/C(=O)C=C[C@@H]1C/C=C\CCCC(N)=O
Assigned class: 0

Compound: CCN(CC)CC(C)Nc1ccc(C)c2sc3ccccc3c(=O)c12 (stereo not drawn)
Assigned class: 0

Compound: CCOC(=O)/C(C1=CC(=O)C(=O)c2ccccc21)=C(/C)NCc1ccccc1
Assigned class: 0

Compound: COC(=O)c1ccc2c(c1)c1c(C)c3cnccc3c(C)c1n2C
Assigned class: 1

Compound: CC1(C)C(=O)/C(=C\c2ccco2)C[C@]2(C)[C@H]3CC=C4[C@@H]5C[C@](C)(C(=O)O)CC[C@]5(C)CC[C@@]4(C)[C@]3(C)CC[C@@H]12
Assigned class: 0

Compound: O=C1C=C(c2cc(Br)c(O)c(Br)c2)/C(=C/c2cc(Br)c(O)c(Br)c2)O1
Assigned class: 0

Compound: Cc1ccc2c(c1)sc(-c1ccc(N(C)C)cc1)[n+]2C
Assigned class: 1

Compound: N#CC1C(N)=NNC1c1ccc(-c2ccc(-c3nc4ccccc4o3)cc2)o1 (stereo not drawn)
Assigned class: 0

Compound: Cc1ccc(-c2cc3nc(-c4ccccc4)nc(C(Cl)Cl)n3n2)cc1
Assigned class: 0

Compound: CN(C)CCNc1cccc2sc3ccc(O)cc3c(=O)c12
Assigned class: 0

Reference for the values: PubChem BioAssay (NCI)
